experimental_system: D2-like dopamine receptors (Rattus norvegicus, UniProt P61169)
Construct: Striatal tissue from the brains of male Charles River CD rats; from tissue; host or cells: rat striatum (male Charles River CD rats), crude membrane pellet
Sequence (P61169 whole entry): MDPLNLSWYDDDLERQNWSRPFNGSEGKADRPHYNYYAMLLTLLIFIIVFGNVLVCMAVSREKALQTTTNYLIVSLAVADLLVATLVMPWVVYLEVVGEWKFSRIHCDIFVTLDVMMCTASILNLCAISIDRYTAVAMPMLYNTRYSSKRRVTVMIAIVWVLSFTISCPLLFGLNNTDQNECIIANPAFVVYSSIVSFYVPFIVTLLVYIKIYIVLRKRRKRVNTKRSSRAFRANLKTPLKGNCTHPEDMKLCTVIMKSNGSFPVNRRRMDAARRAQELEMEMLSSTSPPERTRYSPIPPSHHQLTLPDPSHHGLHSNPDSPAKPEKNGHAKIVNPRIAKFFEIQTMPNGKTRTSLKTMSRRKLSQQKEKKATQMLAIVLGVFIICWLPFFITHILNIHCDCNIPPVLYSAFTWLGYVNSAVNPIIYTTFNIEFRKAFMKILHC
experimental_protocol: inhibition of tritiated (S)-sulpiride binding to D2-like dopamine receptors, rat striatal tissue
Design: species or system male Charles River CD rats
run_conditions: 4° C., 40 minutes, pH 7.7
measurement_label: Ki (nM)
Answers are plain numbers, in nM.

compound	measurement_label	measured_result
CC(=O)Nc1ccc(S(=O)(=O)NCC2CCN(C[C@H]3COc4ccc(Cl)cc4O3)CC2)cc1 [Example 8]	Ki	37.2

Batch of 3 compounds: report Ki for each.
1. O=S(=O)(NCC1CCN(C[C@H]2COc3ccc(Cl)cc3O2)CC1)c1ccc(C(F)(F)F)cc1Cl [Example 17]
2. O=S(=O)(NCC1CCN(C[C@H]2COc3ccc(Cl)cc3O2)CC1)c1ccc(Cl)cc1 [Example 11]
3. O=[N+]([O-])c1ccc(S(=O)(=O)NCC2CCN(C[C@H]3COc4ccc(Cl)cc4O3)CC2)cc1 [Example 4]

1: 519; 2: 157; 3: 105

====

Assign Ki to each entry below.
experimental_system: D2-like dopamine receptors (Rattus norvegicus, UniProt P61169)
Construct: Striatal tissue from the brains of male Charles River CD rats; from tissue; host or cells: rat striatum (male Charles River CD rats), crude membrane pellet
experimental_protocol: inhibition of tritiated (S)-sulpiride binding to D2-like dopamine receptors, rat striatal tissue
Parameters: species or system male Charles River CD rats
run_conditions: 4° C., 40 minutes, pH 7.7
Method: Striatal tissue from the brains of male Charles River CD rats weighing between 140-250 g were homogenised in ice-cold 50 mM Tris-HCl buffer (pH 7.7 when measured at 25° C.) and centrifuged at 40,000 g for 10 minutes. The pellet was resuspended in Tris salts buffer (50 mM Tris-HCl buffer containing 120 mM NaCl, 5 mM KCl, 2 mM CaCl2 and 1 mM MgCl2 with the addition of 6 mM ascorbic acid; pH 7.7 when measured at 25° C.), and again centrifuged at 40,000 g for 10 minutes. […]
Enter the number, and then the unit.

As a guide, the following entries are already answered.
molecule	measured_result
COc1cc(C)c(S(=O)(=O)NCC2CCN(C[C@H]3COc4ccc(Cl)cc4O3)CC2)c(C)c1C	306 nM
Cc1ccc(S(=O)(=O)NCC2CCN(C[C@H]3COc4ccc(Cl)cc4O3)CC2)cc1	301 nM
O=[N+]([O-])c1ccccc1S(=O)(=O)NCC1CCN(C[C@H]2COc3ccc(Cl)cc3O2)CC1	85 nM
COc1ccc(Cl)cc1S(=O)(=O)NCC1CCN(C[C@H]2COc3ccc(Cl)cc3O2)CC1	351 nM

Batch of 6 molecules: report Ki for each.
1. COc1ccc(S(=O)(=O)NCC2CCN(C[C@H]3COc4ccc(Cl)cc4O3)CC2)cc1
2. O=S(=O)(NCC1CCN(C[C@H]2COc3ccc(Cl)cc3O2)CC1)c1cc(OCC(F)(F)F)ccc1OCC(F)(F)F
3. O=S(=O)(NCC1CCN(C[C@H]2COc3ccc(Cl)cc3O2)CC1)c1cccc(Cl)c1Cl
4. O=S(=O)(NCC1CCN(C[C@H]2COc3ccc(Cl)cc3O2)CC1)c1ccc(OC(F)(F)F)cc1
5. Cc1c(C)c(C)c(S(=O)(=O)NCC2CCN(C[C@H]3COc4ccc(Cl)cc4O3)CC2)c(C)c1C
6. O=S(=O)(NCC1CCN(C[C@H]2COc3ccc(Cl)cc3O2)CC1)c1c(F)c(Br)cc(F)c1Br

["96.4 nM", "258 nM", "73 nM", "357 nM", "317 nM", "438 nM"]

Batch of 6 molecules: report Ki for each.
1. O=S(=O)(NCC1CCN(C[C@H]2COc3ccc(Cl)cc3O2)CC1)c1cc2nnoc2c2ccccc12
2. O=S(=O)(NCC1CCN(C[C@H]2COc3ccc(Cl)cc3O2)CC1)c1ccc2ccccc2c1
3. O=S(=O)(NCC1CCN(C[C@H]2COc3ccc(C(F)(F)F)cc3O2)CC1)c1ccccn1
4. O=S(=O)(NCC1CCN(C[C@H]2COc3ccc(Cl)cc3O2)CC1)c1cc(Br)ccc1Br
5. O=S(=O)(NCC1CCN(C[C@H]2COc3ccc(Cl)cc3O2)CC1)c1cccnc1 [Example 3, hydrate]
6. CC(=O)Nc1ccc(S(=O)(=O)NCC2CCN(C[C@H]3COc4ccc(Br)cc4O3)CC2)cc1

1. 235 nM
2. 241 nM
3. 28.7 nM
4. 487 nM
5. 28 nM
6. 23 nM

Origin of the recorded values: patent US6136825A
